assayNotes: Inhibition of p-gp in human KB/VCR cells assessed as potentiation of 100 nM docetaxel-induced cytotoxicity after 72 hrs by MTT assay
EC50 values, listed per item
Record the value in nM, omitting the unit from your answer.

So, CC1(C)[C@@H](O)CC[C@]2(C)[C@H]3C[C@@H](O)[C@@H]4[C@@H]([C@@](C)(O)CCCNCc5ccccc5)CC[C@@]4(C)[C@]3(C)CC[C@@H]12 ? Its EC50 was 1370

Okay, next one:
Recorded result, CC1(C)[C@@H](O)CC[C@]2(C)[C@H]3C[C@@H](O)[C@@H]4[C@@H]([C@@](C)(O)CCCNCCc5ccccc5)CC[C@@]4(C)[C@]3(C)CC[C@@H]12 , EC50: 1310

Source listed as BindingDB's records for doi:10.1016/j.bmc.2013.04.067.
